Values were extracted from the RNAGym collection of RNA variant scans (doi:10.1126/science.aae0568).

B1: tRNA (parent)
chain: GUUCCGUUGGCGUAAUGGUAACGCGUCUCCCUCCUAAGGAGAAGACUGCGGGUUCGAGUCCCGUACGGAACG

Variants of: B1
Assay: yeast fitness relative to wild type (ratio to wild type); higher = fitter; tRNA-Arg(CCU), competitive growth, 37 C, YPD
This sample holds only a part of the variants without activity.
ASSAY_METRIC: yeast fitness
Form field (numeric): enter value without unit.

Field yeast fitness (entry GUUCCGUUGGCGUAAUGGGAACGCGUCUCCCUCCUAACGAGAAGACUGCGGGUUCGAGUCCCGUACGGAACG [U19G G38C] ) reads 0.637

GUUCCGUUGGCGUAAUGGUAACGCAUCUCCCUCCUAAGGAGAAGUCUGCGGGUCCGACUCCCGUACGGAACG [G25A A45U U54C G58C] yielded yeast fitness of 0.596

The value of yeast fitness measured for the variant GUUCCGUUGGCGUAAUGGUAACGCGACUCCCUCUUAAGGAGAUGACUGCGGGUUCGAGUCCCGUAGGGAACG [U26A C34U A43U C66G] turned out to be 0.628

Per the records, this variant ( GUUCCGGUGGCGUAAUGGUAACGCGUCUCCCUCCUAUGGAGAAGACUGCGGGUUCGAGUCCCGUACGGAUCG [U7G A37U A70U] ) has yeast fitness equal to 0.542

Record GUUCCGUUGGCGUAAUGGUAACGCGUCUGCCUCCUAAGGAGAAGACUCCGGGUUCGAGUGCCGUACGGAACG [C29G G48C C60G] . Reported yeast fitness: 0.515

Please fill in: yeast fitness reported for GUUCCGUUGGCGUAAUGGUAACGCGUCUCCCUCCUAAGGAGAAGACUGCGGGUUUGAGUCCCGUACGGAGCG [C55U A70G] = 0.705

yeast fitness measured on GUUCGGUUGGCGUAAUGGUAACGCGUCUCCCUCCUAGGGAGAAGACUGCGGGUUCGAGUCCCGUACGGAACG [C5G A37G] = 0.805

Lookup result for GUUCCGUUGGCGUAAUGGUAACGCGUUUCCCUCCUAAGGAGAAGAUUGCGGGUUCGAGUCCCGUACGGCACG [C27U C46U A69C] ; measured yeast fitness: 0.776

Lookup result for GUUCCGUAGGCGUAAUGGUAACCCGUCUCCCUCCUAAGGAGAAGACUGCGCGUUCGAGUCCGGUACGGAACG [U8A G23C G51C C62G] ; measured yeast fitness: 0.727

Lab book: yeast fitness of GUUCCGUUGGCGUAAUGGUGACGCGCCUCCCUCCUAAGGAGAAGACUGCGGGUUCGAGUCCCGUCCGGAACG [A20G U26C A65C] noted as 0.704

GUUCCGUUGGCGUAAUGGUAACGCGUCUCCCUCCUAAGGAGAAGCCUGCGGGUUCGCCUCCCGUACGGAACG [A45C A57C G58C] has a reported yeast fitness of 0.602

The measured yeast fitness associated with GUUCCGUUGGCGUAAUGGUGACGCGUCUCCCUCCUAAGGAGAAGACUGCGGGUUCCAGUCCCGUACGGAUCG [A20G G56C A70U] reads 0.859
